System: MCF7
test details: Antiproliferative activity against human MCF7 cells after 48 hrs by MTT assay
Format: functional, cell-based
measurement parameters: MCF7, 48 h
Measured IC50 of individual entries
Give the quantity in nM, number only.

Give the value of IC50 reported for the following: COc1ccc(C2C3CCc4ccc(OC)cc4C3=NN2c2nc3nc4ccccc4nc3s2)cc1 (configuration not stated)
1910

Continue with the next compound.
Give the value of IC50 reported for the following: `C#Cc1cccc(Nc2ncnc3cc(OCCOC)c(OCCOC)cc23)c1`
2320

Origin of values: ChEMBL document CHEMBL4330061
